Recorded values, source ChEMBL document CHEMBL3885861.

Organism: Rattus norvegicus
Assay: Open TG-GATES - Regimen: Single
Format: toxicity, organism-based, Sprague-Dawley
Design: regimen Single, gender Male, age 6 weeks
Conditions: in vivo, po, 0 mg/kg, 6 h, tissue Plasma, route gavage, dose level Control
readout kind: gamma-GTP (IU/L)
Report as a plain number; the unit IU/L is understood.

Worked examples follow.
compound	result number
CC(CN1c2ccccc2Sc2ccccc21)N(C)C (stereo not given) [PROMETHAZINE]	1.8
CCOC(=O)[C@H](CCc1ccccc1)N[C@@H](C)C(=O)N1CCC[C@H]1C(=O)O	1.6
Clc1c(Cl)c(Cl)c(Cl)c(Cl)c1Cl [PERCHLOROBENZENE]	1.2
COc1cc([C@@H]2c3cc4c(cc3[C@@H](O[C@@H]3O[C@@H]5CO[C@@H](C)O[C@H]5[C@H](O)[C@H]3O)[C@H]3COC(=O)[C@H]23)OCO4)cc(OC)c1O [ETOPOSIDE]	1
C#C[C@]1(O)CC[C@H]2[C@@H]3CCC4=Cc5oncc5C[C@]4(C)[C@H]3CC[C@@]21C [DANAZOL]	1.4

Asked: # return recorded gamma-GTP for entry CC(=O)Nc1nnc(S(N)(=O)=O)s1 [ACETAZOLAMIDE]
Given back: 1.2

Asked: # return recorded gamma-GTP for entry Cc1cccc(Nc2ccccc2C(=O)O)c1C [MEFENAMIC ACID]
Given back: 1

Asked: # return recorded gamma-GTP for entry CN(C)[C@@H]1C(O)=C(C(N)=O)C(=O)[C@@]2(O)C(O)=C3C(=O)c4c(O)cccc4[C@@](C)(O)[C@H]3C[C@@H]12 [TETRACYCLINE]
Given back: 1.2

Asked: # return recorded gamma-GTP for entry CN1C(C(=O)Nc2ccccn2)=C(O)c2sc(Cl)cc2S1(=O)=O [LORNOXICAM]
Given back: 0.8

Asked: # return recorded gamma-GTP for entry C1CCC(C(CC2CCCCN2)C2CCCCC2)CC1 (stereo not given) [PERHEXILINE]
Given back: 1
